target: T1, human CCR8 (human, UniProt P51685 1-355); assay: FACS on HEK293-human CCR8 cells
T1 construct: whole, on cells; also called hCCR8
T1 sequence (P51685 whole entry): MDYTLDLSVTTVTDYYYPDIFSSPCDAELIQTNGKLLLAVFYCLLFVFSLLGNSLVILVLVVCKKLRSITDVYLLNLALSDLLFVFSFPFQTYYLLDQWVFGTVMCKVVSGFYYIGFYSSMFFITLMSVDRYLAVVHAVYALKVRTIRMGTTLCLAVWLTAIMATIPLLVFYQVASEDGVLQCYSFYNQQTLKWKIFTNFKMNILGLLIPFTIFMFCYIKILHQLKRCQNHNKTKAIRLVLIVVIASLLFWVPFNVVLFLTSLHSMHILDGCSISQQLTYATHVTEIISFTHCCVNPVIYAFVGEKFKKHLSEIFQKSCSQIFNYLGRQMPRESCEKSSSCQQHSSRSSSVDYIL
measuredMetric: Max MFI (MFI)
Numbers only; they are read as MFI.

If you can, please state the reported Max MFI value of Hu149-8 (antibody, V domains shown, humanized IgG) VH: EVQLVESGGGLVQPGGSLKLSCAASGFTFNTYAMNWVRQASGKGLEWVGRIRSKSNFYATYYAASVKGRFTISRDDSKNTAYLQMNSLKTEDTAVYYCTRGRDYGSSYAMDYWGQGTLVTVSS VL: DIVMTQSPLSLPVTPGEPASISCRSSKSLLHSNANTYLYWYLQKPGQSPQLLIYRMSNLASGVPDRFSGSGSGTDFTLKISRVEAEDVGVYYCMQHLEYPLTFGGGTKVELK . 3830
